Let's look at some compounds and their measured % inhibiton at 1 uM AKT2.
- Tested on: panel of 24 kinases
- test summary: Kinase selectivity testing (percentage inhibition of 24 kinases at 1 μM)
- Assay type: biochemical
- assay setup: proquinase, AKT2, 1 uM
result type: % inhibiton at 1 uM AKT2 (%)

{"compound": "COc1cc(NCC2CCNCC2)nc2c1nnn2-c1cccc(N(C)C)c1 [2-87]", "tested target": "panel of 24 kinases", "value measured": 4}
{"compound": "FC(F)(F)Oc1cccc(-n2nnc3ccc(NC4CC5(CCNCC5)C4)nc32)c1 [2-66]", "tested target": "panel of 24 kinases", "value measured": 0}
{"compound": "FC(F)(F)Oc1cccc(-n2nnc3ccc(N4CCCC5(CCCN5)CC4)nc32)c1 (stereo not drawn) [2-65]", "tested target": "panel of 24 kinases", "value measured": 0}
{"compound": "FC(F)(F)c1cccc(-n2nnc3cc(Cl)c(NCC4CCNCC4)nc32)c1 [2-83]", "tested target": "panel of 24 kinases", "value measured": 0}
{"compound": "COc1cc(NCC2CCNCC2)nc2c1nnn2-c1cccc(OC(F)(F)F)c1 [2-92]", "tested target": "panel of 24 kinases", "value measured": 0}
{"compound": "FC(F)(F)Oc1cccc(-n2nnc3ccc(NCC4CC5(CCNCC5)C4)nc32)c1 [2-67]", "tested target": "panel of 24 kinases", "value measured": 0}

====

- Test system: panel of 24 kinases
- test summary: Kinase selectivity testing (percentage inhibition of 24 kinases at 1 μM)
- Type: biochemical
- assay setup: proquinase, DYRK 1A, 1 uM
result type: % inhibiton at 1 uM DYRK 1A (%)

{"compound": "FC(F)(F)Oc1cccc(-n2nnc3ccc(N4CCCC5(CCCN5)CC4)nc32)c1 (centres unmarked)", "value measured": 12}
{"compound": "FC(F)(F)Oc1cccc(-n2nnc3cc(Cl)c(NCC4CCNCC4)nc32)c1", "value measured": 30}
{"compound": "COc1cc(NCC2CCNCC2)nc2c1nnn2-c1cccc(OC(F)(F)F)c1", "value measured": 0}
{"compound": "FC(F)(F)Oc1cccc(-n2nnc3ccc(NCC4CC5(CCNCC5)C4)nc32)c1", "value measured": 18}
{"compound": "FC(F)(F)Oc1cccc(-n2nnc3ccc(NC4CC5(CCNCC5)C4)nc32)c1", "value measured": 30}
{"compound": "OC1CCC(Nc2ccc3nnn(-c4cccc(OC(F)(F)F)c4)c3n2)CC1 (stereo in doubt)", "value measured": 3}
{"compound": "FC(F)(F)c1cccc(-n2nnc3cc(Cl)c(NCC4CCNCC4)nc32)c1", "value measured": 7}
{"compound": "COc1cc(NCC2CCNCC2)nc2c1nnn2-c1cccc(N(C)C)c1", "value measured": 1}

====

Let's look at some molecules and their measured EC50.
- Tested on: tumor cell lines
- test summary: Combination assay (MTT in vitro cell proliferation, combination index)
- Type: cell-based
- assay setup: Homo sapiens, MIA PaCa-2, MiaPaca-2, pancreas; chemotherapeutic alone; read-out: Chemo EC50

{"molecule": "CS(=O)(=O)CCNCc1ccc(-c2ccc3ncnc(Nc4ccc(OCc5cccc(F)c5)c(Cl)c4)c3c2)o1 [lapatinib, reference compound]", "unit annotation": "µM", "EC50": 20}
{"molecule": "Nc1ccn([C@@H]2O[C@H](CO)[C@@H](O)C2(F)F)c(=O)n1 [Gemcitabine, reference compound]", "unit annotation": "µM", "EC50": 0.05}

====

Let's look at some compounds and their measured pIC50.
- tested target: PIM-1 (Homo sapiens, UniProt P11309)
- Construct: histidine tag (C); made in house
- Sequence (P11309 whole entry): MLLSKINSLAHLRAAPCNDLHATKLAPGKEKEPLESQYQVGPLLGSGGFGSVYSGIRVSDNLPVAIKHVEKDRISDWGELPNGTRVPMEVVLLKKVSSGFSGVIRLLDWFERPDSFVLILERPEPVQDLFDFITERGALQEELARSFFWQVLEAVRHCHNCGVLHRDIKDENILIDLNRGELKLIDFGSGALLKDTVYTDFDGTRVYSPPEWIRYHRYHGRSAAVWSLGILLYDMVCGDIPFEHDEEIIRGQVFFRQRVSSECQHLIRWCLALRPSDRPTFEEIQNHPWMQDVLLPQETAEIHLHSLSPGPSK
- test summary: PIM-1 biochemical assay (ADP Hunter);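 also: recombinant human PIM-1 carrying a C-terminal His tag, kinase activity quantified via ADP formed as the direct enzymatic product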
- assay setup: semi-quantitative class; read-out: PIM1 IC50
pIC50: −log10 of the molar value.
result type: pIC50

{"mol smiles": "CN(C)CCNc1ccc2nnn(-c3cccc(OC(F)(F)F)c3)c2n1", "result type": "pIC50", "value measured": "< 6.00"}
{"mol smiles": "CC(C)(C)OC(=O)N1CCN(CCNc2ccc3nnn(-c4cccc(OC(F)(F)F)c4)c3n2)CC1", "result type": "pIC50", "value measured": "< 6.00"}
{"mol smiles": "FC(F)(F)Oc1cccc(-n2nnc3ccc(NCC4CCN(CC5CCOCC5)CC4)nc32)c1", "result type": "pIC50", "value measured": "6.00 to 7.00"}
{"mol smiles": "O[C@H]1CC[C@@H](Nc2nc3c(cc2Cl)nnn3-c2cccc(OC(F)(F)F)c2)CC1", "result type": "pIC50", "value measured": "> 7.00"}
{"mol smiles": "CCOC(=O)c1cc2nnn(-c3ccc(OC)cc3)c2nc1N1CCCCCC1", "result type": "pIC50", "value measured": "< 6.00"}

====

- tested target: PIM-3 (Homo sapiens)
- Construct: purchased Millipore 14-738
- test summary: PIM-3 biochemical assay (ADP Hunter);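 also: kinase activity read out as the quantity of ADP generated by the enzyme reaction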
- assay setup: actual IC50 value in parentheses; read-out: PIM3 IC50
pIC50: −log10 of the molar value.
result type: pIC50

{"compound": "COc1cc(NCC2CC3(CCNCC3)C2)nc2c1nnn2-c1cccc(N(C)C)c1", "value measured": 7.25}
{"compound": "FC(F)(F)Oc1cccc(-n2nnc3cc(Cl)c(N4CCCC5(CCCN5)CC4)nc32)c1 (stereo not shown)", "value measured": 7.25}
{"compound": "FC(F)(F)Oc1cccc(-n2nnc3ccc(N4CCCC5(CCCN5)CC4)nc32)c1 (stereo not shown)", "value measured": 8.22}
{"compound": "FC(F)(F)c1cccc(-n2nnc3cc(Cl)c(NCC4CCNCC4)nc32)c1", "value measured": 8.22}
{"compound": "FC(F)(F)Oc1cccc(-n2nnc3cc(Br)c(NCC4CCNCC4)nc32)c1", "value measured": 8.10}
{"compound": "COc1cc(NC2CC3(CCNCC3)C2)nc2c1nnn2-c1cccc(N(C)C)c1", "value measured": 7.17}
{"compound": "FC(F)(F)Oc1cccc(-n2nnc3ccc(NCC4CCN(Cc5ccncc5)CC4)nc32)c1", "value measured": 7.66}
{"compound": "Oc1ccc(-n2nnc3ccc(NCc4ccc(F)cc4)nc32)cc1", "value measured": 7.29}
{"compound": "Oc1ccc(-n2nnc3ccc(NCC4CCNCC4)nc32)cc1", "value measured": 7.82}
{"compound": "FC(F)(F)Oc1cccc(-n2nnc3cc(Cl)c(NC4CC5(CCNCC5)C4)nc32)c1", "value measured": 7.40}

====

Let's look at some compounds and their measured % inhibiton at 1 uM PDK1.
- Tested on: panel of 24 kinases
- test summary: Kinase selectivity testing (percentage inhibition of 24 kinases at 1 μM)
- Assay type: biochemical
- assay setup: proquinase, PDK1, 1 uM

{"compound": "COc1cc(NCC2CCNCC2)nc2c1nnn2-c1cccc(OC(F)(F)F)c1", "% inhibiton at 1 uM PDK1 [%]": 0}
{"compound": "COc1cc(NCC2CCNCC2)nc2c1nnn2-c1cccc(N(C)C)c1", "% inhibiton at 1 uM PDK1 [%]": 9}
{"compound": "FC(F)(F)Oc1cccc(-n2nnc3ccc(NCC4CC5(CCNCC5)C4)nc32)c1", "% inhibiton at 1 uM PDK1 [%]": 0}
{"compound": "FC(F)(F)Oc1cccc(-n2nnc3ccc(N4CCCC5(CCCN5)CC4)nc32)c1 (stereo not drawn)", "% inhibiton at 1 uM PDK1 [%]": 0}
{"compound": "FC(F)(F)Oc1cccc(-n2nnc3ccc(NC4CC5(CCNCC5)C4)nc32)c1", "% inhibiton at 1 uM PDK1 [%]": 4}
{"compound": "FC(F)(F)c1cccc(-n2nnc3cc(Cl)c(NCC4CCNCC4)nc32)c1", "% inhibiton at 1 uM PDK1 [%]": 3}

====

- test summary: Metabolic stability assay
- Type: in vitro ADME
- assay setup: percentage metabolic stability in human liver microsomes
Let's look at some compounds and their measured Stability in HLM.

{"compound": "FC(F)(F)Oc1cccc(-n2nnc3cc(Cl)c(NCC4CCNCC4)nc32)c1", "Stability in HLM (%)": 93.95}
{"compound": "COc1cc(NCC2CCNCC2)nc2c1nnn2-c1cccc(N(C)C)c1", "Stability in HLM (%)": 86.25}
{"compound": "FC(F)(F)Oc1cccc(-n2nnc3ccc(NC4CC5(CCNCC5)C4)nc32)c1", "Stability in HLM (%)": 91.1}
{"compound": "FC(F)(F)Oc1cccc(-n2nnc3ccc(NCC4CC5(CCNCC5)C4)nc32)c1", "Stability in HLM (%)": 92.15}
{"compound": "FC(F)(F)c1cccc(-n2nnc3cc(Cl)c(NCC4CCNCC4)nc32)c1", "Stability in HLM (%)": 112.7}
{"compound": "FC(F)(F)Oc1cccc(-n2nnc3ccc(N4CCCC5(CCCN5)CC4)nc32)c1 (stereo not drawn)", "Stability in HLM (%)": 88.9}
{"compound": "FC(F)(F)Oc1cccc(-n2nnc3ccc(NCC4CCNCC4)nc32)c1", "Stability in HLM (%)": 97.95}
{"compound": "COc1cc(NCC2CCNCC2)nc2c1nnn2-c1cccc(OC(F)(F)F)c1", "Stability in HLM (%)": 96.65}
{"compound": "OC1CCC(Nc2ccc3nnn(-c4cccc(OC(F)(F)F)c4)c3n2)CC1 (stereo in doubt)", "Stability in HLM (%)": 43.6}
